Consider the following compounds and their measured MIC K. pneumoniae ATCC 4352 readings.
Tested on: Klebsiella pneumoniae
Format: cell-based
Numbered stars: 1 amine (or outer) side, 2 acyl side, 3 side chain; on linkers, the order of the positions; unused ones are H or OH. Bridge positions count the residues as written; N and C are the ends. Square brackets hold non-standard residues; d marks the D form. Peptide text beside a SMILES is read from it. * marks the point of attachment. ξ: configuration not given here. X5 = CCCCCCCCc1ccc(C[C@@H](N[*:1])C(=O)[*:2])cc1; Thr(3ξ) = CC(O)[C@H](N)C(=O)O; X4 = CC(C)CC1CNCC(C(=O)*)C1; Dab = NCC[C@H](N)C(=O)O; Dap = NC[C@H](N)C(=O)O
assay readout: MIC K. pneumoniae ATCC 4352 (µg/mL)

compound	reported result
CC(C)CC(CN)C(=O)N[C@H](C(=O)N[C@@H](CN)C(=O)N[C@H]1CCNC(=O)[C@H]([C@@H](C)O)NC(=O)[C@H](CCN)NC(=O)[C@H](CCN)NC(=O)[C@H](CC(C)C)NC(=O)[C@@H](Cc2ccc(Br)cc2)NC(=O)[C@H](CCN)NC1=O)C(C)O (single isomer, unassigned; isomer 1) [Example 13]	0.5
CCCCCCCCc1ccc(C[C@H]2NC(=O)[C@H](CCN)NC(=O)[C@@H](NC(=O)[C@H](CN)NC(=O)[C@@H](NC(=O)C3CNCC(CC(C)C)C3)C(C)O)CCNC(=O)[C@H]([C@@H](C)O)NC(=O)[C@H](CCN)NC(=O)[C@H](CCN)NC(=O)[C@H](CC(C)C)NC2=O)cc1 (some centres unmarked) [Example 23] (X4-[Thr(3ξ)][Dap][Dab][Dab][X5]L[Dab][Dab]T; lactam 3-C)	1

----------
This section presents compounds with their documented MIC A. baumanii ATCC BAA-747 values.
Test system: Acinetobacter baumannii
Type: cell-based
Bridge positions count the residues as written; N and C are the ends. Square brackets hold non-standard residues; d marks the D form. Peptide text beside a SMILES is read from it. * marks the point of attachment. ξ: configuration not given here. dCha = N[C@H](CC1CCCCC1)C(=O)O; Thr(3ξ) = CC(O)[C@H](N)C(=O)O; X1 = CC(C)CN1CCNC[C@H]1C(=O)*; X24 = NCCC(Cc1ccsc1)C(=O)*; Dab = NCC[C@H](N)C(=O)O; Dap = NC[C@H](N)C(=O)O
assay readout: MIC A. baumanii ATCC BAA-747 (µg/mL)

compound	unit annotation	reported result
CC(C)C[C@@H]1NC(=O)[C@@H](CC2CCCCC2)NC(=O)[C@H](CCN)NC(=O)[C@@H](NC(=O)[C@H](CN)NC(=O)[C@@H](NC(=O)C(CCN)Cc2ccsc2)[C@@H](C)O)CCNC(=O)[C@H]([C@@H](C)O)NC(=O)[C@H](CCN)NC(=O)[C@H](CCN)NC1=O (stereo partly drawn) [Example 68] (X24-T[Dap][Dab][Dab][dCha]L[Dab][Dab]T; lactam 3-C)	µg/mL	0.25
CC(C)C[C@@H]1NC(=O)[C@@H](CC2CCCCC2)NC(=O)[C@H](CCN)NC(=O)[C@@H](NC(=O)[C@H](CN)NC(=O)[C@@H](NC(=O)CC(N)C2CCCCC2)C(C)O)CCNC(=O)[C@H]([C@@H](C)O)NC(=O)[C@H](CCN)NC(=O)[C@H](CCN)NC1=O (single isomer, unassigned; isomer 2) [Example 33]	µg/mL	0.25
CC(C)C[C@@H]1NC(=O)[C@@H](CC2CCCCC2)NC(=O)[C@H](CCN)NC(=O)[C@@H](NC(=O)[C@H](CCN)NC(=O)[C@@H](NC(=O)[C@@H]2CNCCN2CC(C)C)C(C)O)CCNC(=O)[C@H]([C@@H](C)O)NC(=O)[C@H](CCN)NC(=O)[C@H](CCN)NC1=O (stereo partly drawn) [Example 52] (X1-[Thr(3ξ)][Dab][Dab][Dab][dCha]L[Dab][Dab]T; lactam 3-C)	µg/mL	0.25

----------
Test system: Acinetobacter baumannii
Type: cell-based
Bridge positions count the residues as written; N and C are the ends. Square brackets hold non-standard residues; d marks the D form. Peptide text beside a SMILES is read from it. * marks the point of attachment. ξ: configuration not given here. dPhe(4-CN) = N#Cc1ccc(C[C@@H](N)C(=O)O)cc1; dBip = N[C@H](Cc1ccc(-c2ccccc2)cc1)C(=O)O; X29 = Cc1ccc(CO[C@@H](CN)C(=O)*)cc1; Octanoyl(6-Me) = CCC(C)CCCCC(=O)*; X23 = NCC[C@H](OCc1ccccc1)C(=O)*; dCha = N[C@H](CC1CCCCC1)C(=O)O; Thr(3ξ) = CC(O)[C@H](N)C(=O)O; Dab = NCC[C@H](N)C(=O)O; Dap = NC[C@H](N)C(=O)O
assay readout: MIC A. baumanii ATCC BAA-747

compound	reported result
CC(C)CC(CN)C(=O)N[C@H](C(=O)N[C@@H](CN)C(=O)N[C@H]1CCNC(=O)[C@H]([C@@H](C)O)NC(=O)[C@H](CCN)NC(=O)[C@H](CCN)NC(=O)[C@H](CC(C)C)NC(=O)[C@@H](Cc2ccc(-c3ccccc3)cc2)NC(=O)[C@H](CCN)NC1=O)C(C)O (single isomer, unassigned; isomer 2) [Example 16]	0.25 µg/mL
CC(C)C[C@@H]1NC(=O)[C@@H](CC2CCCCC2)NC(=O)[C@H](CCN)NC(=O)[C@@H](NC(=O)[C@H](CN)NC(=O)[C@@H](NC(=O)CC(CN)c2ccc(Cl)cc2)C(C)O)CCNC(=O)[C@H]([C@@H](C)O)NC(=O)[C@H](CCN)NC(=O)[C@H](CCN)NC1=O (single isomer, unassigned; isomer 2) [Example 51]	0.5 µg/mL
CC(C)C[C@@H]1NC(=O)[C@@H](CC2CCCCC2)NC(=O)[C@H](CCN)NC(=O)[C@@H](NC(=O)[C@H](CN)NC(=O)[C@@H](NC(=O)C(CCN)c2ccc(F)cc2)C(C)O)CCNC(=O)[C@H]([C@@H](C)O)NC(=O)[C@H](CCN)NC(=O)[C@H](CCN)NC1=O (single isomer, unassigned; isomer 2) [Example 44]	0.06 µg/mL
CC(C)C[C@@H]1NC(=O)[C@@H](CC2CCCCC2)NC(=O)[C@H](CCN)NC(=O)[C@@H](NC(=O)[C@H](CCN)NC(=O)[C@@H](NC(=O)C(CCN)Cc2ccccc2)C(C)O)CCNC(=O)[C@H]([C@@H](C)O)NC(=O)[C@H](CCN)NC(=O)[C@H](CCN)NC1=O (single isomer, unassigned; isomer 2) [Example 36]	1 µg/mL
CCC(C)CCCCC(=O)N[C@@H](CCN)C(=O)N[C@H](C(=O)N[C@@H](CCN)C(=O)N[C@H]1CCNC(=O)[C@H]([C@@H](C)O)NC(=O)[C@H](CCN)NC(=O)[C@H](CCN)NC(=O)[C@H](CC(C)C)NC(=O)[C@@H](Cc2ccc(C#N)cc2)NC(=O)[C@H](CCN)NC1=O)C(C)O (stereo partly drawn) [Example 24, Polymyxin B[D-(4-cyano)Phe]-6] ({Octanoyl(6-Me)}-[Dab][Thr(3ξ)][Dab][Dab][Dab][dPhe(4-CN)]L[Dab][Dab]T; lactam 4-C)	0.25 µg/mL
CCCCCCCCC1CNCC1C(=O)N[C@H](C(=O)N[C@@H](CCN)C(=O)N[C@H]1CCNC(=O)[C@H]([C@@H](C)O)NC(=O)[C@H](CCN)NC(=O)[C@H](CCN)NC(=O)[C@H](CC(C)C)NC(=O)[C@@H](Cc2ccc(-c3ccccc3)cc2)NC(=O)[C@H](CCN)NC1=O)C(C)O (single isomer, unassigned; isomer 1) [Example 7]	1 µg/mL
CCC(C)CCCCC(=O)N[C@@H](CCN)C(=O)N[C@H](C(=O)N[C@@H](CCN)C(=O)N[C@H]1CCNC(=O)[C@H]([C@@H](C)O)NC(=O)[C@H](CCN)NC(=O)[C@H](CCN)NC(=O)[C@H](CC(C)C)NC(=O)[C@@H](Cc2ccc(-c3ccccc3)cc2)NC(=O)[C@H](CCN)NC1=O)C(C)O (some centres unmarked) [Example C3, reference compound] ({Octanoyl(6-Me)}-[Dab][Thr(3ξ)][Dab][Dab][Dab][dBip]L[Dab][Dab]T; lactam 4-C)	1 µg/mL
CC(C)C[C@@H]1NC(=O)[C@@H](CC2CCCCC2)NC(=O)[C@H](CCN)NC(=O)[C@@H](NC(=O)[C@H](CN)NC(=O)[C@@H](NC(=O)C(CCN)Cc2ccccc2F)[C@@H](C)O)CCNC(=O)[C@H]([C@@H](C)O)NC(=O)[C@H](CCN)NC(=O)[C@H](CCN)NC1=O (single isomer, unassigned; isomer 2) [Example 65]	0.25 µg/mL
CC(C)C[C@@H]1NC(=O)[C@@H](CC2CCCCC2)NC(=O)[C@H](CCN)NC(=O)[C@@H](NC(=O)[C@H](CN)NC(=O)[C@@H](NC(=O)[C@H](CCN)OCc2ccccc2)C(C)O)CCNC(=O)[C@H]([C@@H](C)O)NC(=O)[C@H](CCN)NC(=O)[C@H](CCN)NC1=O (some centres unmarked) [Example 48] (X23-[Thr(3ξ)][Dap][Dab][Dab][dCha]L[Dab][Dab]T; lactam 3-C)	0.125 µg/mL
CC(C)C[C@@H]1NC(=O)[C@@H](CC2CCCCC2)NC(=O)[C@H](CCN)NC(=O)[C@@H](NC(=O)[C@H](CN)NC(=O)[C@@H](NC(=O)C(CN)Cc2ccccc2)C(C)O)CCNC(=O)[C@H]([C@@H](C)O)NC(=O)[C@H](CCN)NC(=O)[C@H](CCN)NC1=O (single isomer, unassigned; isomer 2) [Example 34]	0.125 µg/mL
Cc1ccc(CO[C@@H](CN)C(=O)N[C@H](C(=O)N[C@@H](CN)C(=O)N[C@H]2CCNC(=O)[C@H]([C@@H](C)O)NC(=O)[C@H](CCN)NC(=O)[C@H](CCN)NC(=O)[C@H](CC(C)C)NC(=O)[C@@H](CC3CCCCC3)NC(=O)[C@H](CCN)NC2=O)[C@@H](C)O)cc1 [Example 78] (X29-T[Dap][Dab][Dab][dCha]L[Dab][Dab]T; lactam 3-C)	0.25 µg/mL
